Hello, the source for this data is patent US20240067651A1, in case you need it.

# assay_name: Stability in Simulated Gastric Fluid (SGF)
# Type: in vitro ADME
# Set-up: key: % parent compound remaining relative to 0-minute sample
# experimental_conditions: % remaining at 1 h; SGF with pepsin pH 1.2, 2 μg/mL, 37° C.
measured_property: SGF (%)

{"molecule": "CC(C)OCCn1c(=S)[nH]c(=O)c2c1ccn2COC(=O)[C@H]1CCCN1C(=O)OC(C)(C)C", "SGF (%)": 84}
{"molecule": "CC(C)OCCn1c(=S)[nH]c(=O)c2c1ccn2COC(=O)CCNC(=O)[C@@H](NC(=O)OC(C)(C)C)C(C)C", "SGF (%)": 74}
{"molecule": "CC(C)OCCn1c(=S)[nH]c(=O)c2c1ccn2COC(=O)[C@H]1CCCN1C(=O)OCC1c2ccccc2-c2ccccc21", "SGF (%)": 90}
{"molecule": "CC(C)OCCn1c(=S)[nH]c(=O)c2c1ccn2COC(=O)CCN", "SGF (%)": 97}
{"molecule": "CC(C)OCCn1c(=S)[nH]c(=O)c2c1ccn2C(C)OC(=O)N(CC(F)(F)F)CC(F)(F)F (centres unmarked)", "SGF (%)": 100}
{"molecule": "CC(C)OCCn1c(=S)[nH]c(=O)c2c1ccn2COC(=O)CCCCCCCCCCCCCCC(=O)O", "SGF (%)": 95}
{"molecule": "COCCOCCN(C)C(=O)OCSc1nc(=O)c2c(ccn2COC(=O)N(C)CCOCCOC)n1CCOC(C)C", "SGF (%)": 99}

* * *

# assay_name: Plasma Stability
# Format: in vitro ADME, human
# experimental_conditions: % @ 1 h (remaining) in human plasma
measured_property: human Plasma stability (% @ 1 h)

Example cases with answers are listed next.
{"compound": "CC(C)OCCn1c(SCOC(=O)N(C)C(C)C)nc(=O)c2c1ccn2COC(=O)N(C)C(C)C.O=C(O)C(F)(F)F [Example 171]", "human Plasma stability / % @ 1 h": 97}
{"compound": "CCC(=O)OCn1ccc2c1c(=O)[nH]c(=S)n2CCOC(C)C [Example 156]", "human Plasma stability / % @ 1 h": 0}
{"compound": "CC(C)CN(C)C(=O)OCSc1nc(=O)c2[nH]ccc2n1CCOC(C)C [Example 172]", "human Plasma stability / % @ 1 h": 98}
{"compound": "CCCCN(C)C(=O)OCSc1nc(=O)c2[nH]ccc2n1CCOC(C)C.O=C(O)C(F)(F)F [Example 160]", "human Plasma stability / % @ 1 h": 99}
{"compound": "C=CCCN(C)C(=O)OCSc1nc(=O)c2[nH]ccc2n1CCOC(C)C.O=C(O)C(F)(F)F [Example 179]", "human Plasma stability / % @ 1 h": 99}

(A) CC(C)CN(C)C(=O)OCSc1nc(=O)c2c(ccn2COC(=O)N(C)CC(C)C)n1CCOC(C)C [Example 161]
(B) CC(=O)OCn1ccc2c1c(=O)[nH]c(=S)n2CCOC(C)C [Example 159]
# min-compare on human Plasma stability between A and B Write the label of whichever entry you select.
B

* * *

# assay_name: Stability in Simulated Gastric Fluid (SGF)
# Assay type: in vitro ADME
# experimental_conditions: simulated gastric fluid, remaining at 1 h
Examples of compounds with documented SGF follow.
Respond with the bare value in % remaining.

{"smiles_code": "CC(C)C[C@@H](NC(=O)OC(C)(C)C)C(=O)OCCCCC(=O)OCn1c(=O)c2c(ccn2COC(=O)CCCCOC(=O)[C@@H](CC(C)C)NC(=O)OC(C)(C)C)n(CCOC(C)C)c1=S", "observed": 99}
{"smiles_code": "CSCC[C@H](N)C(=O)OCCCCC(=O)OCn1ccc2c1c(=O)[nH]c(=S)n2CCOC(C)C.O=C(O)C(F)(F)F", "observed": 33}

--- query ---
What value of SGF has been recorded for this entry: CC(C)OCCn1c(SCOC(=O)CCCOC(=O)[C@@H](Cc2ccccc2)NC(=O)OC(C)(C)C)nc(=O)c2c1ccn2COC(=O)CCCOC(=O)[C@@H](Cc1ccccc1)NC(=O)OC(C)(C)C
97
